Molecular target: CRF1 receptors (Homo sapiens, UniProt P34998)
Construct: endogenous in cells; host or cells: IMR-32 cells, transformed with 2.5 µM 5'-bromo-2'-deoxyuridine for 10 days; membrane preparation
Sequence (P34998 24-415): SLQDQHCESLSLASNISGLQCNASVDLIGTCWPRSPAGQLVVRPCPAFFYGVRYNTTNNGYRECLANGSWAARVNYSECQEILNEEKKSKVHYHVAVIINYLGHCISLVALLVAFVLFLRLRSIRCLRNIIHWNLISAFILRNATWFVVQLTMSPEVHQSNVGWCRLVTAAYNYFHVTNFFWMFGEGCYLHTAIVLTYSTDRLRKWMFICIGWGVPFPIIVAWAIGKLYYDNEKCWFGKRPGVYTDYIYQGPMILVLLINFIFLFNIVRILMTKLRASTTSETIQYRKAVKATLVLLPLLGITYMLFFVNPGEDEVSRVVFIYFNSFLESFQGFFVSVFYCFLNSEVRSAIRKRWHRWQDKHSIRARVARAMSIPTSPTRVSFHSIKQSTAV
Assay: CRF1 receptor radioligand binding assay ([125I]-oCRF competition, IMR-32 cell membranes)
Details: IMR-32 cell membranes, [125I]-oCRF 100 pM; read-out: Ki (CRF-1R)
PROPERTY_LABEL: Ki

>>> result("C=CCN(CC=C)Cc1c(C(F)(F)F)nc2n1CCCN2c1c(C)cc(C)cc1C")
"< 100 nM"

Item `CCCN(CC1CCC1)C(=O)c1c(CC)nc2n1CCN2c1ccc(C(C)C)cc1Br` has what recorded Ki?
< 10000 nM

Item `Cc1cc(C)c(-n2c3ccccc3n3c(CN(CCC4CC4)CCC(F)(F)F)c(C(F)(F)F)nc23)c(C)c1` has what recorded Ki?
< 1000 nM

Item `CCCCN(CC)Cc1c(CC)nc2n(-c3c(C)cc(C)cc3C)c(Cl)cn12` has what recorded Ki?
< 1000 nM

###

Target: CRF1 receptors (Homo sapiens, UniProt P34998)
Construct: endogenous in cells; host or cells: IMR-32 cells, transformed with 2.5 µM 5'-bromo-2'-deoxyuridine for 10 days; membrane preparation
Test: CRF1 receptor radioligand binding assay ([125I]-oCRF competition, IMR-32 cell membranes)
Conditions: IMR-32 cell membranes, [125I]-oCRF 100 pM; read-out: Ki (CRF-1R)
PROPERTY_LABEL: Ki

Below are worked cases with known answers.
>>> result("CCc1nc2n(c1C(=O)N(CCC(F)(F)F)Cc1cccc(F)c1)CCN2c1c(C)cc(C)cc1C")
"< 10000 nM"
>>> result("CCCC(O)(CCC)c1c(CC)nc2n1CCN2c1c(C)cc(C)cc1C")
"< 1000 nM"
>>> result("CCN(Cc1c(C(F)(F)F)nc2n(-c3ccc(C(C)C)cc3Br)c3ccccc3n12)CC1CC1")
"< 1000 nM"
>>> result("Cc1cc(C)c(N2CCCn3c2nc(C)c3C(=O)N(CC2CC2)CC2CC2)c(C)c1")
"< 10000 nM"
>>> result("C=CCN(CCC)Cc1c(C(F)(F)F)nc2n(-c3c(C)cc(C)cc3C)c3ncccc3n12")
"< 1000 nM"
>>> result("CCC=C(CCC)c1c(CC)nc2n1CCN2c1c(C)cc(C)cc1Cl")
"< 100 nM"
>>> result("CCCN(CCc1ccccc1)Cc1c(C(F)(F)F)nc2n1CCCN2c1c(C)cc(C)cc1Cl")
"< 1000 nM"

Kindly consider the entry below.
Item `CC(C)c1ccc(-n2c3ccccc3n3c(CN(CCC(F)(F)F)Cc4ccccc4)c(C(F)(F)F)nc23)c(Br)c1` has what recorded Ki?
< 10000 nM
